# study.system: T1, VEGFR-1-Fc (UniProt P17948 27-338)
# T1 construct: domain: first three Ig domains; expressed in Drosophila S2 cells, purified on Protein A sepharose; also called VEGFR-1-Fc fusion protein; not shown: Fc fragment from the Signal-pIgPlus vector
# T1 sequence (P17948 27-338): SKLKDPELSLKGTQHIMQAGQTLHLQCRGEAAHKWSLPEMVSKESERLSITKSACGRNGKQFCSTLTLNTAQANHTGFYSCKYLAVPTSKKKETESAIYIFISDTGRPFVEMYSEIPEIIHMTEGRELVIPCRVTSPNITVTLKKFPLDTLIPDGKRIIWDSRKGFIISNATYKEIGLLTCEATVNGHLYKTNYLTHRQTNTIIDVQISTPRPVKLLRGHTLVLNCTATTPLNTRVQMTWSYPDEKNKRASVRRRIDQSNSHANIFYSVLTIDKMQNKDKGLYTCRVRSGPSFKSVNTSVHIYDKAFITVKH
# protocol.summary: receptor-Fc IP
reported.metric: binding result

22-13 (ligand) AHYNTEILKSIDNEWRKTQCMPREVCIDVGKEFGVATNTFFKPPCVSVYRCGGCCNDEGLECVPTEESNITMQIMRITVPLSQGPKPVTISFANHTSCRCMSKLD | no binding
62-7 (ligand) GQNHHEVVKFMDVYQRSYCHPREVCIDVGKEFGVATNTFFKPPCVSVYRCGGCCNSEGLQCVPTEESNITMQIMRIKPHQGQHIGEMSFANHTSCRCMSKLD | no binding
41-11 (ligand) AHYNTEILKFMDVYQRSYCHPREVCIDVGKEYPDEIEYIFKPSCVPLMRCGGCCNSEGLQCVPTEESNITMQIMRITVPLSQGPKPVTISFLQHNKCECRPKKD | no binding
61-12 (ligand) GQNHHEVVKFMDVYQRSYCHPREVCIDVGKEYPDEIEYIFKPSCVPLMRCGGCCNSEGLQCMNTSTSYLSKTLFEITVPLSQGPKPVTISFLQHNKCECRPKKD | no binding
81-9 (ligand) AHYNTEILKFMDVYQRSYCHPIETLVDIFQEYPDEIEYIFKPSCVPLMRCGGCCNDEGLECVPTEESNITMQIMRITVPLSQGPKPVTISFLQHNKCECRPKKD | binds
12-3 (ligand) GQNHHEVVKFMDVYQRSYCHPIETLVDIFQEFGVATNTFFKPPCVSVYRCGGCCNSEGLQCVPTEESNITMQIMRIKPHQGQHIGEMSFLQHNKCECRPKKDLVFEQKLISEEDLNSAVDHHHHHH | binds
22-15 (ligand) AHYNTEILKSIDNEWRKTQCMPREVCIDVGKEFGVATNTFFKPPCVSVYRCGGCCNSEGLQCVPTEESNITMQIMRITVPLSQGPKPVTISFANHTSCRCMSKLD | no binding

Let us examine a further case.
Entry under review: 71-4 (ligand) GQNHHEVVKSIDNEWRKTQCMPREVCIDVGKEYPDEIEYIFKPSCVPLMRCGGCCNSEGLQCMNTSTSYLSKTLFEIKPHQGQHIGEMSFLQHNKCECRPKKD . Reported binding result?
no binding

Values were extracted from patent US20080058263A1.
